Target: T1, topo VI H2TH-AAA (Methanosarcina mazei, UniProt Q8PUB7;Q8PUB8 1-369;1-621, R263A;K268A;K308A)
T1 sequence 1: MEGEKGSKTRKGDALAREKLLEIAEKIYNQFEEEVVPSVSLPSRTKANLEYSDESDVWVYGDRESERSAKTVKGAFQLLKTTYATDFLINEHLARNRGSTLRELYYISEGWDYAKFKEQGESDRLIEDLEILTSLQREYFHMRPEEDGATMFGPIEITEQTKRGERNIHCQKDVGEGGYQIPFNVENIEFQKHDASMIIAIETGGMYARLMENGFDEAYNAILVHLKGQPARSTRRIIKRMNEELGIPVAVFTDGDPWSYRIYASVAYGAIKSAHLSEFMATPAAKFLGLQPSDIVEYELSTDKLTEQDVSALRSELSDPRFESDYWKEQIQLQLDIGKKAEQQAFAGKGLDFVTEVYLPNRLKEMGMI
T1 sequence 2: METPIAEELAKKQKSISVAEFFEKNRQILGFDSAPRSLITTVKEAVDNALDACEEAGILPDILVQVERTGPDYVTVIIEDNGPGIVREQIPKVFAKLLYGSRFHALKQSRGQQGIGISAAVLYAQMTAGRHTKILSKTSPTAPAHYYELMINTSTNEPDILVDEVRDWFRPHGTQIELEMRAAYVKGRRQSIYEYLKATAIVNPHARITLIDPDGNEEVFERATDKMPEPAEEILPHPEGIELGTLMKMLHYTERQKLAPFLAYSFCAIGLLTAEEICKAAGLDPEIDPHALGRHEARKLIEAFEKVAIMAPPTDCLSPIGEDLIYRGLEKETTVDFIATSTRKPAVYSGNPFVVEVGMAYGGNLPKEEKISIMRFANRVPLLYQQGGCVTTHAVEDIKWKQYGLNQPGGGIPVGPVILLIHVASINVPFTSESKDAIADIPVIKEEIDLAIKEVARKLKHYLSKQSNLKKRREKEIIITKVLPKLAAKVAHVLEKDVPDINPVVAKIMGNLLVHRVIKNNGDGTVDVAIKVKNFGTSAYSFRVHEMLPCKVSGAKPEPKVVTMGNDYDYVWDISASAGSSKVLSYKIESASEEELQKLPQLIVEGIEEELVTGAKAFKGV
Assay: fluorescence anisotropy; Fluorescence anisotropy, 20 nM FAM-labelled DNA, topo VI 0 and 3.9-4000 nM, no nucleotide; buffer, salt, pH and temperature not given in supplied text
Details: protein: recombinant; tags: N-terminal His6-TEV on Top6B, removed; chain copies: 2;2; label: 5'-FAM strand 1; blunt
Label yes when Kd is strictly below 90 nM; otherwise label no.

1. 40 bp duplex (dsDNA) DNA 1: CTATTGAAAAAGGAAGAGTATGAGTATTCAACATTTCCGC DNA 2: GCGGAAATGTTGAATACTCATACTCTTCCTTTTTCAATAG : yes
2. 20 bp duplex (dsDNA) DNA 1: CGGAAGAGTATGAGTATTCG DNA 2: CGAATACTCATACTCTTCCG : no
3. 30 bp duplex (dsDNA) DNA 1: CAAAAAGGAAGAGTATGAGTATTCAACATC DNA 2: GATGTTGAATACTCATACTCTTCCTTTTTG : no
4. 70 bp duplex (dsDNA) DNA 1: CCAAATGCTTCAATAATATTGAAAAAGGAAGAGTATGAGTATTCAACATTTCCGTGTCGCCCTTATTCCC DNA 2: GGGAATAAGGGCGACACGGAAATGTTGAATACTCATACTCTTCCTTTTTCAATATTATTGAAGCATTTGG : no
5. 60 bp duplex (dsDNA) DNA 1: CGCTTCAATAATATTGAAAAAGGAAGAGTATGAGTATTCAACATTTCCGTGTCGCCCTTC DNA 2: GAAGGGCGACACGGAAATGTTGAATACTCATACTCTTCCTTTTTCAATATTATTGAAGCG : no
